Reference source for all entries: patent US11814435B2

- study system: T1, hBCMA (human BCMA) (Homo sapiens, UniProt Q02223)
- T1 sequence (Q02223 1-184): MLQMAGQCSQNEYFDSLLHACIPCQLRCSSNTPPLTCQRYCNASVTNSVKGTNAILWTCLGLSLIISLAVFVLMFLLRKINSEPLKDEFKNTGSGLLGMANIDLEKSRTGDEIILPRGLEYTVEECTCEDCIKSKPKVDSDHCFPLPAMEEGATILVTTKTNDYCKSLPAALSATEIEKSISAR
- procedure text: Kinetics and affinity of hBCMA/human IgG interactions by SPR (Bio-Rad Proteon XPR36)
- Type: binding
- measurement setup: huBCMA, 37° C.
observed property: kd (1/s) huBCMA @37° C. (s⁻¹)
Kindly provide the numeric value in s⁻¹ only, without the unit symbol.

The examples below pair each entry with its known result.
L3.PY/L1.FF/H3.YA: anti-BCMA antibody (antibody, V domains shown) VH: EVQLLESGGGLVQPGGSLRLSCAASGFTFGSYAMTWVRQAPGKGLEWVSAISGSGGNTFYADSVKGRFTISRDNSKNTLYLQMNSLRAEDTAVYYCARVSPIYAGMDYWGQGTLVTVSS VL: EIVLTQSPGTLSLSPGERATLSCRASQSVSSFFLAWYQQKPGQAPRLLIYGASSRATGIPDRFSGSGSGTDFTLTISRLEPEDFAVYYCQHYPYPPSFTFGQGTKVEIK	0.0018
L3.PY/L3.KY/H2.YQ: anti-BCMA antibody (antibody, V domains shown) VH: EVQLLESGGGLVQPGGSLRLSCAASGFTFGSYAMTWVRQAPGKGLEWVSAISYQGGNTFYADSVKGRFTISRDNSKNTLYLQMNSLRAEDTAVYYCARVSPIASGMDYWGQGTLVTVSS VL: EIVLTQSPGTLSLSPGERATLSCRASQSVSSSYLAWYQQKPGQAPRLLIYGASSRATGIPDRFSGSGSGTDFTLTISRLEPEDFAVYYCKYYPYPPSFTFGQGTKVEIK	0.00165
L3.PY/L1.AH/H2.HA: anti-BCMA antibody (antibody, V domains shown) VH: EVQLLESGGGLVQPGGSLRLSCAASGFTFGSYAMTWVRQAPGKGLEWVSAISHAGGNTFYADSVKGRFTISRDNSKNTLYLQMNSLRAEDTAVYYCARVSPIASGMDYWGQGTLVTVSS VL: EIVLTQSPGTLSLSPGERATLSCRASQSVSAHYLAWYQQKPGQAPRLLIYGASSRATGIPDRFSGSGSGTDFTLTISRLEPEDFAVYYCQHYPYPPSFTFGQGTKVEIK	0.00181

Qu. Fill in the blank: the reported kd (1/s) huBCMA @37° C. of L3.PY/H2.LT: anti-BCMA antibody (antibody, V domains shown) VH: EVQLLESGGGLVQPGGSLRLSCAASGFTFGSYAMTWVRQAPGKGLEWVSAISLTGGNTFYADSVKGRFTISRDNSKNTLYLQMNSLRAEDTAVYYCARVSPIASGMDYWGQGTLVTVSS VL: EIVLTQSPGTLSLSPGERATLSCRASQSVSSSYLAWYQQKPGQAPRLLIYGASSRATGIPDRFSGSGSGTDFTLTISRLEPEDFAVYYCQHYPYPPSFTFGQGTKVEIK is ____.
Ans. 0.00129

Qu. I'd like to know its kd (1/s) huBCMA @37° C.. The molecule in question is L3.PY/L1.FF/H2.LT: anti-BCMA antibody (antibody, V domains shown) VH: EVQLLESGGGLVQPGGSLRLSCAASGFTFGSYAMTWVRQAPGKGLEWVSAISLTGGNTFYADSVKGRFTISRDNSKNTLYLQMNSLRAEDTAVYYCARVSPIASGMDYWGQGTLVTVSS VL: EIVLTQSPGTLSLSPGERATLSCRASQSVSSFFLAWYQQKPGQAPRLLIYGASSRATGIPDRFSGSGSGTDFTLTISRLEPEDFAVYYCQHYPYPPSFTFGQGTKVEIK
Ans. 0.00167
